Test system: IL-2 production in a Human Jurkat Cell Line
Assay: Inhibition of IL-2 production in PHA-stimulated Jurkat cells (IL-2 ELISA)
Type: cell-based
Details: Homo sapiens, Jurkat, 20 h, read-out: IC50 (concentration at which IL-2 release is inhibited by 50%)
pIC50: −log10 of the molar value.
pIC50 values by entry

| compound | pIC50 |
| --- | --- |
| N#CC(=Cc1ccc(-n2ccc(-c3ccccc3)n2)cc1)C(=O)c1ccco1 [Compound 31] | < 6.00 |
| N#CC(=Cc1cccc(-n2nc(C(F)(F)F)cc2C(F)(F)F)c1)c1cccc(F)c1F [Compound 43] | < 6.00 |
| N#CC(=Cc1ccc(-n2nc(C(F)(F)F)cc2OC(F)F)cc1)c1cc(F)ccc1F [Compound 3] | 6.00 to 8.00 |
| Cc1cc(C(F)(F)F)n(-c2ccc(C=C(C#N)c3ccc(F)c(F)c3)cc2)n1 [Compound 21] | 6.00 to 8.00 |

###

Tested on: IL-2 production in a Human Jurkat Cell Line
Test: Inhibition of IL-2 production in PHA-stimulated Jurkat cells (IL-2 ELISA)
Format: cell-based
Conditions: Homo sapiens, Jurkat, 20 h, read-out: IC50 (concentration at which IL-2 release is inhibited by 50%)
pIC50: −log10 of the molar value.
pIC50 values by entry

| molecule.smiles | target | pIC50 |
| --- | --- | --- |
| N#CC(=Cc1ccc(-n2cccn2)cc1)c1ccccc1F | IL-2 production in a Human Jurkat Cell Line | < 6.00 |
| N#CC(=Cc1ccc(-n2cccn2)cc1)c1ccccc1 | IL-2 production in a Human Jurkat Cell Line | < 6.00 |
| N#CC(=Cc1ccc(-n2c(C(F)(F)F)nc3ccccc32)cc1)c1cc(F)ccc1F | IL-2 production in a Human Jurkat Cell Line | 6.00 to 8.00 |
| N#CC(=Cc1ccc(-n2nc(C(F)(F)F)cc2C(F)(F)F)cc1)c1ccc(F)c(F)c1F | IL-2 production in a Human Jurkat Cell Line | 6.00 to 8.00 |
| Cc1cc(C(F)(F)F)n(-c2ccc(C=C(C#N)c3cccc(F)c3F)cc2)n1 | IL-2 production in a Human Jurkat Cell Line | 6.00 to 8.00 |
| N#CC(=Cc1ccc(-n2nc(C(F)(F)F)cc2C(F)(F)F)cc1)c1c(F)ccc(F)c1F | IL-2 production in a Human Jurkat Cell Line | > 8.00 |
| N#CC(=Cc1ccc(-n2ccc(-c3cccs3)n2)cc1)C(=O)c1ccccc1 | IL-2 production in a Human Jurkat Cell Line | < 6.00 |
| Cc1cc(C(F)(F)F)n(-c2ccc(C=C(C#N)C(=O)c3ccc(F)cc3F)cc2)n1 | IL-2 production in a Human Jurkat Cell Line | < 6.00 |
| N#CC(=Cc1ccc(-n2cccn2)cc1)c1cc(F)ccc1F | IL-2 production in a Human Jurkat Cell Line | < 6.00 |

###

Tested on: IL-2 production in a Human Jurkat Cell Line
Experiment: Inhibition of IL-2 production in PHA-stimulated Jurkat cells (IL-2 ELISA)
Format: cell-based
Conditions: Homo sapiens, Jurkat, 20 h, read-out: IC50 (concentration at which IL-2 release is inhibited by 50%)
IC50 values by entry
measured.attribute: IC50

| molecule.smiles | target | measured.attribute | meas.value |
| --- | --- | --- | --- |
| Cc1cc(C(F)(F)F)n(-c2ccc(C=C(C#N)C(=O)c3cc(F)ccc3F)cc2)n1 | IL-2 production in a Human Jurkat Cell Line | IC50 | > 1000 nM |
| N#CC(=Cc1ccc(-n2nc(C(F)(F)F)cc2C(F)(F)F)cc1)c1cc(F)c(F)cc1F | IL-2 production in a Human Jurkat Cell Line | IC50 | 10 to 1000 nM |
| N#C/C(=C\c1ccc(-n2nc(C(F)(F)F)cc2C(F)(F)F)cc1)C(=O)c1cccc(F)c1F | IL-2 production in a Human Jurkat Cell Line | IC50 | > 1000 nM |
| N#CC(=Cc1ccc(-n2ccc(C(F)(F)F)n2)cc1)c1cc(F)ccc1F | IL-2 production in a Human Jurkat Cell Line | IC50 | > 1000 nM |
| Cc1cc(C(F)(F)F)n(-c2ccc(C=C(C#N)c3c(F)cccc3F)cc2)n1 | IL-2 production in a Human Jurkat Cell Line | IC50 | 10 to 1000 nM |
| N#CC(=Cc1ccc(-n2cccn2)cc1)C(=O)c1ccccc1 | IL-2 production in a Human Jurkat Cell Line | IC50 | > 1000 nM |
| N#CC(=Cc1ccc(-n2ccc(C(F)(F)F)n2)cc1)C(=O)c1ccc(F)cc1F | IL-2 production in a Human Jurkat Cell Line | IC50 | > 1000 nM |
| N#CC(=Cc1ccc(-n2nc(C(F)(F)F)cc2C(F)(F)F)cc1)c1cc(F)c(F)c(F)c1 | IL-2 production in a Human Jurkat Cell Line | IC50 | 10 to 1000 nM |

###

IC50 values by entry
System: IL-2 production in a Human Jurkat Cell Line
Assay: Inhibition of IL-2 production in PHA-stimulated Jurkat cells (IL-2 ELISA)
Type: cell-based
Conditions: Homo sapiens, Jurkat, 20 h, read-out: IC50 (concentration at which IL-2 release is inhibited by 50%)
measured.attribute: IC50

| compound | meas.value |
| --- | --- |
| N#C/C(=C\c1ccc(-n2nc(C(F)(F)F)cc2C(F)(F)F)cc1)c1cccc(F)c1F [Compound 4] | < 0.01 µM |
| N#CC(=Cc1ccc(-n2ccc(C(F)(F)F)n2)cc1)C(=O)c1cc(F)ccc1F [Compound 41] | > 1 µM |
| N#CC(=Cc1ccc(-n2nc(C(F)(F)F)cc2C(F)(F)F)cc1)c1cc(F)ccc1F [Compound 5] | < 0.01 µM |
| Cc1cc(C(F)(F)F)n(-c2ccc(C=C(C#N)c3ccc(F)cc3F)cc2)n1 [Compound 19] | 0.01 to 1 µM |
| N#CC(=Cc1ccc(-n2nc(C(F)(F)F)cc2C(F)(F)F)cc1)c1ccccc1F [Compound 6] | 0.01 to 1 µM |
| N#CC(=Cc1cccc(-n2nc(C(F)(F)F)cc2C(F)(F)F)c1)c1cc(F)ccc1F [Compound 44] | > 1 µM |
| N#C/C(=C\c1ccc(-n2nc(C(F)(F)F)cc2OC(F)F)cc1)c1cccc(F)c1F [Compound 1] | 0.01 to 1 µM |
| N#CC(=Cc1ccc(-n2nc(C(F)(F)F)cc2C(F)(F)F)cc1)C(=O)c1ccc(F)cc1F [Compound 34] | > 1 µM |
| Cc1ccn(-c2ccc(C=C(C#N)C(=O)c3ccco3)cc2)n1 [Compound 29] | > 1 µM |
| N#CC(=Cc1ccc(-n2nc(C(F)(F)F)cc2C(F)(F)F)cc1)C(=O)c1ccco1 [Compound 33] | > 1 µM |
